The values you see were collected from ChEMBL document CHEMBL3507680.

Experiment: Human HepG2 cell viability assay in 384 well format
Format: toxicity, cell-based
Parameters: dose 125 nL, time 70.5 hour; concentration not given beside the values
Details: HepG2 cells, read-out: Inhibition

| Molecule | Measurement unit | cytotoxicity at 70.5 h |
| --- | --- | --- |
| COCc1nc(CNC2CCCc3c2cnn3C(C)(C)C)cs1 (configuration not stated) | % | -6.43 |
| COc1ccc(N2CCN(C(=O)Cn3nccc3C)CC2(C)C)cc1 | % | -0.615 |
| CCc1cnc(N)nc1NCc1ccc(OC)cc1OC | % | -0.135 |
| Cc1cc(S(=O)(=O)N2CCOCC2C#N)ccc1F (configuration not stated) | % | 13.3 |
| CCC(=O)Nc1nnc(CCOc2ccccc2OC)s1 | % | -11.7 |
| CC[C@H]1CN(C(=O)c2cnc(CN3CCCC3)s2)CC[C@@]1(C)O | % | 22.4 |
| CC(CC#N)n1ccc(C(F)(F)F)n1 (configuration not stated) | % | -0.316 |
| O=c1[nH]c2ncccc2n1C1CCCCC1 | % | -6.95 |
| CN(C)S(=O)(=O)N(C)C(c1cccc(F)c1)c1ccccn1 (configuration not stated) | % | -19.9 |
| CC(C)c1nc(S(=O)(=O)N(C)c2cc(F)ccc2F)c[nH]1 | % | -4.89 |
| CCN1CCCC(C)(C(=O)NCc2nccn2Cc2ccccc2)C1 (configuration not stated) | % | 0.597 |
| OC(COCc1ccccc1)CSc1nnc(C2CC2)n1C1CC1 (configuration not stated) | % | 0.33 |
| O=C1NCCCCC1NC(=O)C1(c2ccccc2)CCOCC1 (configuration not stated) | % | -1.6 |
| c1cc(-c2cnc(NC3CC3)nc2[C@H]2CCCO2)ccn1 | % | -7.2 |
| CC(C)N1CCC(CC(=O)N(C)C(C)c2cncs2)CC1 (configuration not stated) | % | -15.3 |
| CCOc1ncccc1NC(=O)NCC(O)c1ccc(OC)cc1 (configuration not stated) | % | 19.2 |
| NC(=O)c1csc(N2CCCC(c3n[nH]c(=O)n3-c3ccccc3)C2)n1 (configuration not stated) | % | -6.33 |
| CCCc1noc(CCC(=O)N2CCCC2c2ccsc2)n1 (configuration not stated) | % | -16.1 |
| CN(CCO)Cc1cc(=O)n2cc(Br)ccc2n1 | % | -1.02 |
| CN1CCNC(Cc2ccc(-c3cccs3)cc2)C1=O (configuration not stated) | % | -6.3 |
| CSc1ccsc1C(=O)NS(=O)(=O)c1ccc(F)cc1 | % | -7.27 |
| COc1ccc(CNC(C)Cn2cccn2)c(OC)c1OC (configuration not stated) | % | -7.21 |
| Cn1nc(C(=O)NC2CC2)cc1NC(=O)C1CC1 | % | -7.34 |
| CC(C)N1CCC(CNC(=O)CCc2cc(F)ccc2F)C1 (configuration not stated) | % | 14.8 |
| Cc1ccc(-c2ccnc(NC(C)c3c(C)n[nH]c3C)n2)c(C)n1 (configuration not stated) | % | -8.64 |
| CCCc1ccc(C(=O)N2CCn3c(nnc3C(C)C)C2)cc1 | % | -5.86 |
| Cc1cc(C(=O)N2CCNC(=O)CC2)c(C)n1CC(F)(F)F | % | 23.5 |
| COCCN(CCOC)C(=O)c1cnn(C)c1C | % | -10.4 |
| O=C1[C@H]2CN(Cc3ccoc3)C[C@@H]2CCN1Cc1cccnc1 | % | -8.89 |
| Cc1c(C2CCCN(C(=O)Cc3ccccn3)C2)n2c(nc1=O)CCC2 (configuration not stated) | % | 0.807 |
| Cc1cc(C)nc(C2CCN(C(=O)c3cnc(N(C)C)nc3)C2)n1 (configuration not stated) | % | -4.6 |
| C=Cc1cccc(CN2CCCn3nc(CNS(C)(=O)=O)cc3C2)c1 | % | -3.84 |
| CCCn1cc(S(=O)(=O)N[C@H]2CN(CCO)C[C@@H]2C2CC2)cn1 | % | -7.84 |
| Cc1ccc2c(c1C)OCC2NCc1cccc(C#N)c1 (configuration not stated) | % | 1.34 |
| CN(C)c1ncccc1CNC(=O)CCNc1ncccn1 | % | -9.01 |
| COc1cc2c(c(OC)c1OC)CCN(CCN1CCCCC1)CC2 | % | -10.5 |
| O=C(Cn1nc(-c2cccs2)ccc1=O)N1CCCCCC1 | % | -24.9 |
| COc1ccc(NC(=O)c2nc(C)sc2C(C)C)cn1 | % | -9.52 |
| OCCN1CCCC(c2nccnc2Oc2ccccc2)C1 (configuration not stated) | % | -6.87 |
| Cc1nnsc1C(=O)N1CCCC(c2nccn2Cc2cscn2)C1 (configuration not stated) | % | -0.672 |
| CN1C(=O)C(c2ccccc2)CC12CCN(CCO)CC2 (configuration not stated) | % | -14.6 |
| CN(C)C(=O)CN1C[C@@H]2CC[C@H](C1)N(Cc1c(Cl)cncc1Cl)C2 | % | -9.62 |
